Test system: THP1/BTZ100
Experiment: cells
Settings: Homo sapiens, THP-1, 72 h, read-out: IC50 5AHQ
parameter measured: IC50 (µM)
Quick note: give the figure in µM, leave out the unit.

Entry Nc1ccc(O)c2ncccc12 [5AHQ, 5-amino-8-hydroxyquinoline] under THP1/BTZ100 had IC50 of 6.3

----------
Assay: LD50 in mice
Conditions: mouse, in vivo
parameter measured: LD50

Briefly, LD50 measured for Nc1ccc(O)c2ncccc12 [5AHQ, 5-amino-8-hydroxyquinoline] : > 1000 mg/kg

----------
System: THP1/BTZ500
Experiment: cells
Conditions: Homo sapiens, THP-1, 72 h, read-out: IC50 5AHQ
parameter measured: pIC50
In textbook form, pIC50 equals minus log to base ten of the concentration in mol/L.

Value of measured pIC50 for the entry Nc1ccc(O)c2ncccc12 [5AHQ, 5-amino-8-hydroxyquinoline] : 5.18
